These entries and their values trace back to ChEMBL document CHEMBL4425111.

Target: Neuropeptide Y receptor type 4 (Homo sapiens, UniProt P50391)
Sequence (P50391 whole entry): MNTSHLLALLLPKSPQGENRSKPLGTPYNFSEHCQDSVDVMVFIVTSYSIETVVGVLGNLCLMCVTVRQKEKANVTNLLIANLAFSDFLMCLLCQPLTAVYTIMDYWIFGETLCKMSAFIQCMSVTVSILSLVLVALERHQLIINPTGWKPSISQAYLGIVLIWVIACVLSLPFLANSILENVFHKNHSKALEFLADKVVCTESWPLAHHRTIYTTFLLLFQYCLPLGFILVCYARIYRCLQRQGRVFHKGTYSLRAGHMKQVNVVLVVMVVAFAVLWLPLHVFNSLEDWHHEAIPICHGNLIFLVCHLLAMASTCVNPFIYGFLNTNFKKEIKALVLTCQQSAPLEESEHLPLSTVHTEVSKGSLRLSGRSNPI
Assay: Agonist activity at GFP-tagged neuropeptide Y4R (unknown origin) expressed in HEK293T cells assessed as beta-arrestin2 recruitment measured after 60 mins by H33342 staining-based imaging method relative to PP
Type: cell-based
quantity: Rmax (%)
Please state the figure in %; there is no need to write the unit.

Lab note: measured Rmax of CCN(CC)c1ccc2c(-c3ccccc3C(=O)N3CCN(C(=O)CCC(=O)N[C@H](C/C=C\C[C@@H](N)C(=O)N[C@@H](Cc4ccc(O)cc4)C(=O)N[C@@H](CCCNC(=N)N)C(=O)N[C@@H](CC(C)C)C(=O)N[C@@H](CCCNC(=N)N)C(=O)N[C@@H](Cc4ccc(O)cc4)C(N)=O)C(=O)N[C@@H](Cc4ccc(O)cc4)C(=O)N[C@@H](CCCNC(=N)N)C(=O)N[C@@H](CC(C)C)C(=O)N[C@@H](CCCNC(=N)N)C(=O)N[C@@H](Cc4ccc(O)cc4)C(N)=O)CC3)c3ccc(=[N+](CC)CC)cc-3oc2c1 was 39.3

Sample CC(C)C[C@H](NC(=O)[C@H](CCCNC(=N)N)NC(=O)[C@H](Cc1ccc(O)cc1)NC(=O)[C@H](N)CCCC[C@@H](N)C(=O)N[C@@H](Cc1ccc(O)cc1)C(=O)N[C@@H](CCCNC(=N)N)C(=O)N[C@@H](CC(C)C)C(=O)N[C@@H](CCCNC(=N)N)C(=O)N[C@@H](Cc1ccc(O)cc1)C(N)=O)C(=O)N[C@@H](CCCNC(=N)N)C(=O)N[C@@H](Cc1ccc(O)cc1)C(N)=O ; Rmax observed: 61.5

CCN1\C(=C/C=C/C=C/C2=[N+](CCCCCC(=O)N[C@H](CCCC[C@@H](N)C(=O)N[C@@H](Cc3ccc(O)cc3)C(=O)N[C@@H](CCCNC(=N)N)C(=O)N[C@@H](CC(C)C)C(=O)N[C@@H](CCCNC(=N)N)C(=O)N[C@@H](Cc3ccc(O)cc3)C(N)=O)C(=O)N[C@@H](Cc3ccc(O)cc3)C(=O)N[C@@H](CCCNC(=N)N)C(=O)N[C@@H](CC(C)C)C(=O)N[C@@H](CCCNC(=N)N)C(=O)N[C@@H](Cc3ccc(O)cc3)C(N)=O)c3ccc(S(=O)(=O)O)cc3C2(C)C)C(C)(C)c2cc(S(=O)(=O)[O-])ccc21 has a reported Rmax of 65.6

Short answer for CCN(CC)c1ccc2c(-c3ccccc3C(=O)N3CCN(C(=O)CCC(=O)N[C@@H](C/C=C\C[C@H](N)C(=O)N[C@@H](Cc4ccc(O)cc4)C(=O)N[C@@H](CCCNC(=N)N)C(=O)N[C@@H](CC(C)C)C(=O)N[C@@H](CCCNC(=N)N)C(=O)N[C@@H](Cc4ccc(O)cc4)C(N)=O)C(=O)N[C@@H](Cc4ccc(O)cc4)C(=O)N[C@@H](CCCNC(=N)N)C(=O)N[C@@H](CC(C)C)C(=O)N[C@@H](CCCNC(=N)N)C(=O)N[C@@H](Cc4ccc(O)cc4)C(N)=O)CC3)c3ccc(=[N+](CC)CC)cc-3oc2c1 : Rmax was 29.2

* * *

Biological target: Neuropeptide Y receptor type 4 (Homo sapiens)
Test: Displacement of [Lys2(sCy5),Arg4]-BVD-15 from C-terminal GFP-tagged neuropeptide Y4R (unknown origin) expressed in human 293TR cells measured after 30 mins by fluorescence analysis
Format: cell-based
Settings: read-out: pIC50 (converted)
For each record, write down the corresponding IC50.
Report as a plain number; the unit nM is understood.

Item: CCN(CC)c1ccc2c(-c3ccccc3C(=O)N3CCN(C(=O)CCC(=O)N[C@@H](CCCC[C@H](N)C(=O)N[C@@H](Cc4ccc(O)cc4)C(=O)N[C@@H](CCCNC(=N)N)C(=O)N[C@@H](CC(C)C)C(=O)N[C@@H](CCCNC(=N)N)C(=O)N[C@@H](Cc4ccc(O)cc4)C(N)=O)C(=O)N[C@@H](Cc4ccc(O)cc4)C(=O)N[C@@H](CCCNC(=N)N)C(=O)N[C@@H](CC(C)C)C(=O)N[C@@H](CCCNC(=N)N)C(=O)N[C@@H](Cc4ccc(O)cc4)C(N)=O)CC3)c3ccc(=[N+](CC)CC)cc-3oc2c1 | IC50: 70.8

So for CCN(CC)c1ccc2c(-c3ccccc3C(=O)N3CCN(C(=O)CCC(=O)N[C@H](C/C=C\C[C@@H](N)C(=O)N[C@@H](Cc4ccc(O)cc4)C(=O)N[C@@H](CCCNC(=N)N)C(=O)N[C@@H](CC(C)C)C(=O)N[C@@H](CCCNC(=N)N)C(=O)N[C@@H](Cc4ccc(O)cc4)C(N)=O)C(=O)N[C@@H](Cc4ccc(O)cc4)C(=O)N[C@@H](CCCNC(=N)N)C(=O)N[C@@H](CC(C)C)C(=O)N[C@@H](CCCNC(=N)N)C(=O)N[C@@H](Cc4ccc(O)cc4)C(N)=O)CC3)c3ccc(=[N+](CC)CC)cc-3oc2c1 , the logged IC50 turned out to be 70.8

* * *

Biological target: Neuropeptide Y receptor type 4 (Homo sapiens)
Experiment: Displacement of [Lys2(sCy5),Arg4]-BVD-15 from C-terminal GFP-tagged neuropeptide Y4R (unknown origin) expressed in human 293TR cells measured after 30 mins by fluorescence analysis
Type: cell-based
Settings: read-out: pIC50 (converted)
quantity: IC50 (nM)
Please respond with the number in nM and leave the unit unwritten.

In plain terms, CC(C)C[C@H](NC(=O)[C@H](CCCNC(=N)N)NC(=O)[C@H](Cc1ccc(O)cc1)NC(=O)[C@H](N)C/C=C\C[C@@H](N)C(=O)N[C@@H](Cc1ccc(O)cc1)C(=O)N[C@@H](CCCNC(=N)N)C(=O)N[C@@H](CC(C)C)C(=O)N[C@@H](CCCNC(=N)N)C(=O)N[C@@H](Cc1ccc(O)cc1)C(N)=O)C(=O)N[C@@H](CCCNC(=N)N)C(=O)N[C@@H](Cc1ccc(O)cc1)C(N)=O has a documented IC50 of 24

// recorded IC50 for CC(C)C[C@H](NC(=O)[C@H](CCCNC(=N)N)NC(=O)[C@H](Cc1ccc(O)cc1)NC(=O)[C@@H](N)C/C=C\C[C@H](N)C(=O)N[C@@H](Cc1ccc(O)cc1)C(=O)N[C@@H](CCCNC(=N)N)C(=O)N[C@@H](CC(C)C)C(=O)N[C@@H](CCCNC(=N)N)C(=O)N[C@@H](Cc1ccc(O)cc1)C(N)=O)C(=O)N[C@@H](CCCNC(=N)N)C(=O)N[C@@H](Cc1ccc(O)cc1)C(N)=O : 132

According to the records, this compound CC(C)C[C@H](NC(=O)[C@H](CCCNC(=N)N)NC(=O)[C@H](Cc1ccc(O)cc1)NC(=O)[C@@H](N)CCCC[C@H](N)C(=O)N[C@@H](Cc1ccc(O)cc1)C(=O)N[C@@H](CCCNC(=N)N)C(=O)N[C@@H](CC(C)C)C(=O)N[C@@H](CCCNC(=N)N)C(=O)N[C@@H](Cc1ccc(O)cc1)C(N)=O)C(=O)N[C@@H](CCCNC(=N)N)C(=O)N[C@@H](Cc1ccc(O)cc1)C(N)=O displays IC50 of 69.2

* * *

Please go through the items and note down their Rmax.
Target: Neuropeptide Y receptor type 4 (Homo sapiens, UniProt P50391)
Assay: Agonist activity at GFP-tagged neuropeptide Y4R (unknown origin) expressed in HEK293T cells assessed as beta-arrestin2 recruitment measured after 60 mins by H33342 staining-based imaging method relative to PP
Type: cell-based
I only need the number, in %, no unit after it.

The value of Rmax measured for the compound CCN1\C(=C/C=C/C=C/C2=[N+](CCCCCC(=O)N[C@@H](CCCC[C@H](N)C(=O)N[C@@H](Cc3ccc(O)cc3)C(=O)N[C@@H](CCCNC(=N)N)C(=O)N[C@@H](CC(C)C)C(=O)N[C@@H](CCCNC(=N)N)C(=O)N[C@@H](Cc3ccc(O)cc3)C(N)=O)C(=O)N[C@@H](Cc3ccc(O)cc3)C(=O)N[C@@H](CCCNC(=N)N)C(=O)N[C@@H](CC(C)C)C(=O)N[C@@H](CCCNC(=N)N)C(=O)N[C@@H](Cc3ccc(O)cc3)C(N)=O)c3ccc(S(=O)(=O)O)cc3C2(C)C)C(C)(C)c2cc(S(=O)(=O)[O-])ccc21 turned out to be 56.6

response.value for CC(C)C[C@H](NC(=O)[C@H](CCCNC(=N)N)NC(=O)[C@H](Cc1ccc(O)cc1)NC(=O)[C@@H](N)C/C=C\C[C@H](N)C(=O)N[C@@H](Cc1ccc(O)cc1)C(=O)N[C@@H](CCCNC(=N)N)C(=O)N[C@@H](CC(C)C)C(=O)N[C@@H](CCCNC(=N)N)C(=O)N[C@@H](Cc1ccc(O)cc1)C(N)=O)C(=O)N[C@@H](CCCNC(=N)N)C(=O)N[C@@H](Cc1ccc(O)cc1)C(N)=O (field: Rmax) = 44.5

# Rmax of COC(=O)[C@H](Cc1ccc(O)cc1)NC(=O)[C@H](CCCNC(=N)N)NC(=O)[C@H](CC(C)C)NC(=O)[C@H](CCCNC(=N)N)NC(=O)[C@H](Cc1ccc(O)cc1)NC(=O)[C@@H](N)CCCC[C@H](N)C(=O)N[C@@H](Cc1ccc(O)cc1)C(=O)N[C@@H](CCCNC(=N)N)C(=O)N[C@@H](CC(C)C)C(=O)N[C@@H](CCCNC(=N)N)C(=O)N[C@@H](Cc1ccc(O)cc1)C(N)=O = 49.1

Form: compound = CC(C)C[C@H](NC(=O)[C@H](CCCNC(=N)N)NC(=O)[C@H](Cc1ccc(O)cc1)NC(=O)[C@@H](N)CCCC[C@H](N)C(=O)N[C@@H](Cc1ccc(O)cc1)C(=O)N[C@@H](CCCNC(=N)N)C(=O)N[C@@H](CC(C)C)C(=O)N[C@@H](CCCNC(=N)N)C(=O)N[C@@H](Cc1ccc(O)cc1)C(N)=O)C(=O)N[C@@H](CCCNC(=N)N)C(=O)N[C@@H](Cc1ccc(O)cc1)C(N)=O ; Rmax = 57.1

Value of measured Rmax for the entry CC(C)C[C@H](NC(=O)[C@H](CCCNC(=N)N)NC(=O)[C@H](Cc1ccc(O)cc1)NC(=O)[C@H](N)C/C=C\C[C@@H](N)C(=O)N[C@@H](Cc1ccc(O)cc1)C(=O)N[C@@H](CCCNC(=N)N)C(=O)N[C@@H](CC(C)C)C(=O)N[C@@H](CCCNC(=N)N)C(=O)N[C@@H](Cc1ccc(O)cc1)C(N)=O)C(=O)N[C@@H](CCCNC(=N)N)C(=O)N[C@@H](Cc1ccc(O)cc1)C(N)=O : 61
